Listed here are compounds together with their documented IC50.
test system: P. falciparum strain W2; experiment: microbe, parasite or virus in culture; type: cell-based; settings: Plasmodium falciparum, W2, read-out: IC50 (μM) W2
Where a name gives a salt, the structure may show the parent alone.
measuredParameter: IC50 (µM)

1. CC[C@H]1CN2CCc3cc(OC)c(OC)cc3[C@@H]2C[C@@H]1C[C@H]1NCCc2cc(OC)c(OC)cc21 [Emetine dihydrochloride, emetine dihydrochloride, reference compound]: 0.181
2. CCC1=C(C[C@H]2NCCc3cc(OC)c(OC)cc32)C[C@H]2c3cc(OC)c(OC)cc3CCN2C1 [(−)-R,S-dehydroemetine]: 0.168

* * *

system: P. falciparum strain Dd2; test: microbe, parasite or virus in culture; format: cell-based; details: Plasmodium falciparum, DD2, read-out: IC50 (μM) Dd2
Counter-ions that a name gives are not always drawn.
measuredParameter: IC50 (µM)

1. CCC1=C(C[C@H]2NCCc3cc(OC)c(OC)cc32)C[C@H]2c3cc(OC)c(OC)cc3CCN2C1 [(−)-R,S-dehydroemetine]: 0.177
2. CC[C@H]1CN2CCc3cc(OC)c(OC)cc3[C@@H]2C[C@@H]1C[C@H]1NCCc2cc(OC)c(OC)cc21 [Emetine dihydrochloride, emetine dihydrochloride, reference compound]: 0.269

* * *

target: hERG potassium channel (Homo sapiens, UniProt Q12809); construct: host or cells: Chinese hamster ovary (CHO) cells; assay: hERG channel inhibition assay (CHO cells, whole-cell voltage clamp, Cyprotex); format: cell-based; settings: human; 2 μM
Sequence (Q12809 whole entry): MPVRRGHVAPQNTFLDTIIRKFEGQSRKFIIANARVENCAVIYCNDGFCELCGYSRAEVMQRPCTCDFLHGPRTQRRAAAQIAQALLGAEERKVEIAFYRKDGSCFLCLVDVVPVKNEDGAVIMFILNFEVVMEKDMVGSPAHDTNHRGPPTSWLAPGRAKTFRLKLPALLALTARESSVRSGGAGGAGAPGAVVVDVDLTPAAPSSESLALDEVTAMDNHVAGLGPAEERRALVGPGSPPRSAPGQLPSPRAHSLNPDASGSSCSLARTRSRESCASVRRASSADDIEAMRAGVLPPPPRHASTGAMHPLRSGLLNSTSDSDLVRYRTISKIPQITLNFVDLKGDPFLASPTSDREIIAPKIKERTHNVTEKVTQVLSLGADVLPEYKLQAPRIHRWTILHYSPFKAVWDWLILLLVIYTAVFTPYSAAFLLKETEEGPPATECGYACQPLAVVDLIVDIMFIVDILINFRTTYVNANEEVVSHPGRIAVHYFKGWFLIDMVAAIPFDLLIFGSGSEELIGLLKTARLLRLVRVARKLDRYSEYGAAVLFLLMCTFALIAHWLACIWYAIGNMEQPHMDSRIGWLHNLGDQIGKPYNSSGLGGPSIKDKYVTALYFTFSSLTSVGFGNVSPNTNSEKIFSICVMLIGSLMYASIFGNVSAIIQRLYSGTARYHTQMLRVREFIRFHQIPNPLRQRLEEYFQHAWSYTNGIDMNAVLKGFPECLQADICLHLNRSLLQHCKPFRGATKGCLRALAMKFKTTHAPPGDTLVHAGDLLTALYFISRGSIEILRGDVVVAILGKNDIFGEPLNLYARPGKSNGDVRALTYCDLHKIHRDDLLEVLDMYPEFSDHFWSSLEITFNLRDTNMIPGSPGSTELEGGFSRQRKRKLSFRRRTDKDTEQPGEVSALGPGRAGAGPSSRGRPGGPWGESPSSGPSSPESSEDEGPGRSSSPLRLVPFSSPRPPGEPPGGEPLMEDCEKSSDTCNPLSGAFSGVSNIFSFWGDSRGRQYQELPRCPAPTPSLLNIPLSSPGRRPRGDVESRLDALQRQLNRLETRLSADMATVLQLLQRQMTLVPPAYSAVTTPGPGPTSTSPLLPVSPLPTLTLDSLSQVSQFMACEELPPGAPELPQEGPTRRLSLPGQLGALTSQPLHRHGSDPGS
Listed here are molecules together with their documented inhibition at 300 s, 2 µM.
measuredParameter: inhibition at 300 s, 2 µM (%)

1. CCC1=C(C[C@H]2NCCc3cc(OC)c(OC)cc32)C[C@H]2c3cc(OC)c(OC)cc3CCN2C1 [(−)-R,S-dehydroemetine]: 7.21
2. CCC1=C(C[C@@H]2NCCc3cc(OC)c(OC)cc32)C[C@H]2c3cc(OC)c(OC)cc3CCN2C1 [(−)-S,S-dehydroisoemetine]: 36

* * *

system: male gametocytes in P. falciparum strain NF54; assay: Dual gamete formation assay, male gametocytes (exflagellation); format: cell-based; conditions: Plasmodium falciparum, 48 h incubation
measuredParameter: IC50 (µM)

1. CCC1=C(C[C@H]2NCCc3cc(OC)c(OC)cc32)C[C@H]2c3cc(OC)c(OC)cc3CCN2C1 [(−)-R,S-dehydroemetine]: 0.43

* * *

target: hERG potassium channel (Homo sapiens, UniProt Q12809); construct: host or cells: Chinese hamster ovary (CHO) cells; assay: hERG channel inhibition assay (CHO cells, whole-cell voltage clamp, Cyprotex); format: cell-based; settings: human, CHO cells expressing the hERG potassium channel; read-out: Selectivity index, IC50 hERG/IC50 parasites
measuredParameter: selectivity ratio at 300 s

1) CCC1=C(C[C@@H]2NCCc3cc(OC)c(OC)cc32)C[C@H]2c3cc(OC)c(OC)cc3CCN2C1 [(−)-S,S-dehydroisoemetine]: 1.48

* * *

target: hERG potassium channel (Homo sapiens, UniProt Q12809); assay: hERG channel inhibition assay (CHO cells, whole-cell voltage clamp, Cyprotex)
pIC50: −log10 of the molar value.
Listed here are compounds together with their documented pIC50.
measuredParameter: pIC50

1. CCC1=C(C[C@H]2NCCc3cc(OC)c(OC)cc32)C[C@H]2c3cc(OC)c(OC)cc3CCN2C1 [(−)-R,S-dehydroemetine]: 4.71
2. CCC1=C(C[C@@H]2NCCc3cc(OC)c(OC)cc32)C[C@H]2c3cc(OC)c(OC)cc3CCN2C1 [(−)-S,S-dehydroisoemetine]: 5.52

Origin of measurements: paper PMC7179302
